# Measured Target: T1, hu4-1BB-Fc (R&D Systems) (human, UniProt Q07011 24-186)
# T1 construct: Bought; also called human 4-1BB; not shown: human IgG Fc of the bought fusion
# Assay Text: SPR (Biacore 8K), hu4-1BB-Fc captured by anti-human IgG Fc; apparent value, 1:1 fit
Readout Type: Kd (nM)
Form entry: value (nM) — number only.

Binder	Readout Type	Numeric Readout
multimeric protein SEQ ID NO: 43 (designed binder) GVRLWATRQAMLGQVHEVPEGWLIFVAEQEELYVRVQNGFRKVQLEARTPLGGGGSGGGGSGGGGSQDSTSDLIPAPPLSKVPLQQNFQDNQFHGKWYVVGQAGNIRLREDKDPIKMMATIYELKEDKSYDVTMVKFDDKKCMYDIWTFVPGSQPGEFTLGKIKSFPGHTSSLVRVVSTNYNQHAMVFFKFVFQNREEFYITLYGRTKELTSELKENFIRFSKSLGLPENHIVFPVPIDQCIDGGGSGGAPEQKLISEEDLGSHHHHHHHHHH	Kd	0.39
multimeric protein SEQ ID NO: 41 (designed binder) QDSTSDLIPAPPLSKVPLQQNFQDNQFHGKWYVVGQAGNIRLREDKDPIKMMATIYELKEDKSYDVTMVKFDDKKCMYDIWTFVPGSQPGEFTLGKIKSFPGHTSSLVRVVSTNYNQHAMVFFKFVFQNREEFYITLYGRTKELTSELKENFIRFSKSLGLPENHIVFPVPIDQCIDGGSPTPTPTTPTPTPTGVRLWATRQAMLGQVHEVPEGWLIFVAEQEELYVRVQNGFRKVQLEARTPLGGSGGAPEQKLISEEDLGSHHHHHHHHHH	Kd	0.31

Turning now to a further record.
// field: Kd; key: 4-1BB-specific lipocalin mutein SEQ ID NO: 64 (designed binder, Monomeric hNGAL mutein; also called 4-1BB-targeting lipocalin mutein as included in the multimeric proteins) QDSTSDLIPAPPLSKVPLQQNFQDNQFHGKWYVVGQAGNIRLREDKDPIKMMATIYELKEDKSYDVTMVKFDDKKCMYDIWTFVPGSQPGEFTLGKIKSFPGHTSSLVRVVSTNYNQHAMVFFKFVFQNREEFYITLYGRTKELTSELKENFIRFSKSLGLPENHIVFPVPIDQCIDG ; value = 0.76
